Source: patent US10076519B2

test system: rabbit skeletal myofibrils (fast skeletal myofibrils); assay: Activation of fast skeletal myofibrils (PUMA assay, PK/LDH-coupled ATPase at pCa25); type: biochemical; settings: median AC1.4 reported as class; procedure of Example 39
Readout Type: Mean AC1.4

As a guide, the following entries are already answered.
Smiles Representation: CS(=O)(=O)N1CC(NC(=O)c2cccc(-c3ccc(NC[C@]4(c5ncccc5F)C[C@H](F)C4)nn3)c2)C1
Result: B (B=1-10 uM)
--
Smiles Representation: CNC(C)(C)C(=O)NCc1cnc(-c2ccc(NCC3(c4ncccc4F)CCC3)nn2)s1
Result: A (A=<1 uM)
--
Smiles Representation: OC[C@H]1CNCCN1Cc1cnc(-c2ccc(NCC3(c4ncccc4F)CCC3)nn2)s1
Result: C (C=10-20 uM)
--
Smiles Representation: CCNC(=O)c1ccc(F)c(-c2ccc(NC[C@]3(c4ncccc4F)C[C@H](F)C3)nn2)c1
Result: B (B=1-10 uM)
--
Smiles Representation: O=C(NC1CS(=O)(=O)C1)c1cccc(-c2ccc(NC[C@]3(c4ncccc4F)C[C@H](F)C3)nn2)c1
Result: B (B=1-10 uM)

Task: Complete the entry with Mean AC1.4 for `O=C(Nc1nnc[nH]1)c1ccc(NCC2(c3ncccc3F)CCC2)nn1`
Result: D (D=>20 uM)

Task: Complete the entry with Mean AC1.4 for `NC(=O)Cc1cnc(-c2ccc(NC[C@]3(c4ncccc4F)C[C@H](F)C3)nn2)s1`
Result: B (B=1-10 uM)

Task: Complete the entry with Mean AC1.4 for `O=C(NC1CC1)c1cccc(-c2ccc(NC[C@]3(c4ncccc4F)C[C@H](F)C3)nn2)c1`
Result: B (B=1-10 uM)

Task: Complete the entry with Mean AC1.4 for `Cc1cc(-c2ccc(NC[C@]3(c4ncccc4F)C[C@H](F)C3)nn2)cnc1N`
Result: B (B=1-10 uM)

Task: Complete the entry with Mean AC1.4 for `NC(=O)c1cn[nH]c1NC(=O)c1ccc(NCC2(c3ncccc3F)CCC2)nn1`
Result: C (C=10-20 uM)

Task: Complete the entry with Mean AC1.4 for `CC(C)(C#N)c1cnc(-c2ccc(NCC3(c4ncccc4F)CCC3)nn2)s1`
Result: D (D=>20 uM)

Task: Complete the entry with Mean AC1.4 for `CNC(=O)Cc1csc(NC(=O)c2ccc(NCC3(c4ncccc4F)CCC3)nn2)n1`
Result: A (A=<1 uM)

###

tested on: rabbit skeletal myofibrils (fast skeletal myofibrils); assay: Activation of fast skeletal myofibrils (PUMA assay, PK/LDH-coupled ATPase at pCa25); assay type: biochemical; conditions: median AC1.4 class, procedure of Example 39
Readout Type: Mean AC1.4

As a guide, the following entries are already answered.
Compound: Fc1ccc(C2(Nc3ccc(-c4cccnc4OCC(F)(F)F)nn3)CCC2)cc1
System Under Test: rabbit skeletal myofibrils (fast skeletal myofibrils)
Result: B (B=1-10 uM)
//
Compound: CC(C)(Nc1ccc(-c2cccc(C(N)=O)c2)nn1)c1ccc(F)cc1
System Under Test: rabbit skeletal myofibrils (fast skeletal myofibrils)
Result: B (B=1-10 uM)
//
Compound: O=c1[nH][nH]c2nc(-c3ccc(NCC4(c5ncccc5F)CCC4)nn3)sc12
System Under Test: rabbit skeletal myofibrils (fast skeletal myofibrils)
Result: D (D=>20 uM)
//
Compound: COC(=O)c1cnc(-c2ccc(NCC3(c4ncccc4F)CCC3)nn2)o1
System Under Test: rabbit skeletal myofibrils (fast skeletal myofibrils)
Result: D (D=>20 uM)

Here is the next item to consider.
Task: Complete the entry with Mean AC1.4 for `O=C(NC[C@H](O)CO)c1ccc(F)c(-c2ccc(NC[C@]3(c4ncccc4F)C[C@H](F)C3)nn2)c1`
Result: A (A=<1 uM)
